Biological target: rR-HPCDH1 (Xanthobacter versatilis)
Sequence (Q56840 2-250): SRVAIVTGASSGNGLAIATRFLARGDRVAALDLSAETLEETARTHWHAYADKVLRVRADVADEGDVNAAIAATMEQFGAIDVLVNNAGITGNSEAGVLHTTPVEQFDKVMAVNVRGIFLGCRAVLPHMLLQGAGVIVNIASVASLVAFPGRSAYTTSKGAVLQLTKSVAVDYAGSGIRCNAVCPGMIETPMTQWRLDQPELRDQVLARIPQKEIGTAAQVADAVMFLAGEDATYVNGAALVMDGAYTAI
READOUT_KIND: Ki (µM)
# unit: µM | format: bare number

Q: Please report the recorded Ki for CC(C)(O)CSCCS(=O)(=O)O [M-HPC] .
Result: 290
